# Target under test: sHdrR-trunc (Hyphomicrobium denitrificans XT) (UniProt D8JT17)
# Sequence: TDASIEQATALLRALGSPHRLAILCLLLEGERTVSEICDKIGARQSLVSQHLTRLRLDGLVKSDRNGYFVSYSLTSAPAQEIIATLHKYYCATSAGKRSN
# Assay comment: EMSA
# Setup conditions: 10 mM Tris-HCl, 50 mM KCl, 1 mM DTT, pH 8.0 (1x of 10x buffer), about 7% glycerol; 20 min RT then 30 min at 30 C with 17 nM DNA; 6% native PAGE, 0.25x TBE, 4 C
Parameter: binding

INSERT INTO results (residues, value_measured) VALUES
  ('CGGCCCTCTGAGAAAAGACGCACACGTCGCGCCAAAAACATATGAACATTCGCATGATGGAATATAACAGCCCTGCCGATCGCACAAGGCTCGCTTTAAACGCGGACGCGTCTTCGCAGCGCACACGCATGCGCTGGACGTCCGATCATGTGAAAATTGGGCTGAAGACTCGCTCTA (double strand) [upstream of lipS1]', 'binds'),
  ('GGGTCACCAAATTCTGCAGGTCTCAATGCGAATGCGAGGCTGCTCCAGCTAGACGAAAAACAAGGAACGTTGCAATAGATAATTCACATATGATAATTTTCATATGTGTTATAGGATGAACGTTATCGCAGCTTCCGGGAGAGATGGCGTGAT (double strand) [soxA-soxY intergenic region]', 'binds'),
  ('TGCCACCTCCCCGATATGCGTGGCTTTTGTTGTTTTGCCACTTCAGTTCTTGTGTAACTTCCTCTTTAGAACCAGTCAATATTACATTCGCATGTTTGAATATTCCATTTTTCTATATGTTCATCGAATTGGAAAAGTTATTCAAATATATCGCGATCGATTGATCGGCGAAGTC (double strand) [upstream of dsrE3C]', 'binds');
